Data provenance is PubChem BioAssay AID463173.

Test system: DeltatarO mutant
EXPERIMENT: S. aureus survival, RN4220 and DeltatarO strains – OD600, teichoic acid synthesis inhibitors, primary screen (AID 463173)
RECORDED_CONDITIONS: S. aureus RN4220 wild type/DeltatarO growth, OD600, 18 h, screened at 18.75 µg/mL (by protocol)
About 4,300 (8.3%) of roughly 52,000 compounds were called active. Cut-off read from the data, not from the text of the source: active = survival mostly below about 52% (no sharp cut-off); inactive = mostly above about 56%. The list comes from a sample in which actives are over-represented; it also holds close analogues and randomly drawn compounds.
Outcomes you can answer with include only these: yes (1) for active, no (0) for inactive

Outcome logged for O=C(c1cccn1-c1nnc(N2CCCC2)s1)N1CCN(c2ccccc2)CC1 in this assay:
yes (1)

Continuing:
Outcome logged for O=C(c1cccn1-c1nnc(N2CCCC2)s1)N1CCN(c2ccc(F)cc2)CC1 in this assay:
no (0)

Then this compound: O=C(c1cccn1-c1nnc(N2CCCC2)s1)N1CCN(c2ccc(Cl)cc2)CC1
no (0)

Then this compound: COc1ccc(N2CCN(C(=O)c3cccn3-c3nnc(N4CCCC4)s3)CC2)cc1
no (0)

Then this compound: O=C(c1cccn1-c1nnc(N2CCCCC2)s1)N1CCN(c2ccccc2)CC1
yes (1)
